- Test system: A375
- assayMethodText: Compounds cellular killing in A375
- Type: cell-based, human
- appliedConditions: Homo sapiens, A-375, […], A375, 6 days, Cell Titer-Glo
quantityMeasured: Emax (%)
Note: unit % is implicit; provide only the numeric part.

Use these answered entries as a reference point.
CC[C@@]1(O)C(=O)OCc2c1cc1n(c2=O)Cc2c-1nc1cc(Cl)cc3c1c2[C@H](NC(=O)CO)CC3 :: 99.6
CC[C@@]1(O)C(=O)OCc2c1cc1n(c2=O)Cc2c-1nc1cc(F)c(C)c3c1c2[C@@H](NC(=S)NCCO)CC3 :: 99.9

Q: Identify measured Emax associated with CC[C@@]1(O)C(=O)OCc2c1cc1n(c2=O)Cc2c-1nc1cc(F)c(C)c3c1c2[C@@H](NC(=O)[C@@H]1C[C@@H](O)CN1C(C)=O)CC3
Ans: 94.9

Q: Identify measured Emax associated with CC[C@@]1(O)C(=O)OCc2c1cc1n(c2=O)Cc2c-1nc1cc(C)c(C)c3c1c2[C@@H](NC(=O)CO)CC3
Ans: 98

Q: Identify measured Emax associated with CC[C@@]1(O)C(=O)OCc2c1cc1n(c2=O)Cc2c-1nc1cc3c(c4c1c2[C@@H](NC(=O)C(C)(C)CO)CC4)OCO3
Ans: 100

Q: Identify measured Emax associated with CC[C@@]1(O)C(=O)OCc2c1cc1n(c2=O)Cc2c-1nc1cc(F)c(OC)c3c1c2[C@@H](N)CC3 [Example 1-1, methanesulfonate]
Ans: 100

* * *

- Test system: Calu-6
- assayMethodText: Compounds cellular killing in Calu-6
- Assay type: cell-based, human
- appliedConditions: Homo sapiens; Calu-6, 6 days, Cell Titer-Glo
pEC50: −log10 of the molar value.
Would you mind labelling by pEC50? At or over 9 is 1, under is 0.

Recorded results for 3 compounds are shown here.
CC[C@@]1(O)C(=O)OCc2c1cc1n(c2=O)Cc2c-1nc1cc3c(c4c1c2[C@@H](N)CC4)OCO3 [Example 1-10] :: 1
CC[C@@]1(O)C(=O)OCc2c1cc1n(c2=O)Cc2c-1nc1cc(F)c(C)c3c1c2C(CCCO)CC3 (stereo partly drawn) [Example 2-14] :: 1
CC[C@@]1(O)C(=O)OCc2c1cc1n(c2=O)Cc2c-1nc1cc(F)c(C)c3c1c2[C@@H](NC(=O)OCCO)CC3 [Example 2-6] :: 1

Please look at the following compound next.
Q: Is pEC50 at least 9? Consider CCc1c2c(nc3ccc(O)cc13)-c1cc3c(c(=O)n1C2)COC(=O)[C@]3(O)CC [Example 1-C, reference compound]
Ans: 0

* * *

- System: Calu-6
- assayMethodText: Compounds cellular killing in Calu-6
- Assay type: cell-based, human
- appliedConditions: Homo sapiens; Calu-6, 6 days, Cell Titer-Glo
quantityMeasured: pEC50
pEC50 here: minus log base 10 of the concentration, concentration in moles per litre.

Use these answered entries as a reference point.
CC[C@@]1(O)C(=O)OCc2c1cc1n(c2=O)Cc2c-1nc1cc3c(c4c1c2C(CCCO)CC4)OCO3 (single isomer, unassigned) [Example 2-59] :: 9.70
CC[C@@]1(O)C(=O)OCc2c1cc1n(c2=O)Cc2c-1nc1cc(F)c(C)c3c1c2[C@@H](NC(=O)NCCO)CC3 [Example 2-26] :: 8.29
CC[C@@]1(O)C(=O)OCc2c1cc1n(c2=O)Cc2c-1nc1cc(F)c(C)c3c1c2[C@@H](NC(=O)c1ccc(CO)o1)CC3 [Example 2-19] :: 9.00

Q: Identify measured pEC50 associated with CC[C@@]1(O)C(=O)OCc2c1cc1n(c2=O)Cc2c-1nc1cc3c(c4c1c2[C@@H](NC(=O)CO)CC4)OCO3 [Example 2-11]
Ans: 8.49

Q: Identify measured pEC50 associated with CC[C@@]1(O)C(=O)OCc2c1cc1n(c2=O)Cc2c-1nc1cc(F)c(C)c3c1c2C(CCO)CC3 (stereo partly drawn) [Example 2-46]
Ans: 9.70

Q: Identify measured pEC50 associated with CC[C@@]1(O)C(=O)OCc2c1cc1n(c2=O)Cc2c-1nc1cc(F)c(C)c3c1c2[C@@H](N(C)CCO)CC3 [Example 2-5]
Ans: 9.52
